target: UniProt:P54687; assay: In vitro coupled enzyme assay (glutamate dehydrogenase, NADH formation), human BCATc; details: recombinant human BCATc, 37° C., 25 mM phosphate buffer pH 7.8; several values in a cell = repeat determinations; read-out: RhBCATc
Field: IC50. Provide a value for each of the compounds that follow.
// units = µM; emit number, no label

So what's the measured IC50 for this one? `O=C(NNS(=O)(=O)c1cc(Cl)cc(Cl)c1)c1ccc2oc3ccccc3c2c1` 7.9

Same thing, different compound: `COc1ccc2oc(C(=O)NNS(=O)(=O)c3ccccc3)c(OC)c2c1` 3.57

Same thing, different compound: `COc1ccc2oc(C(=O)NNS(=O)(=O)c3ccccc3)c(OC(C)C)c2c1` 1.14

Same thing, different compound: `O=C(NNS(=O)(=O)c1cccc(Cl)c1)c1cc2cc(Cl)ccc2o1` 1.8

Same thing, different compound: `Cc1ccc2oc(C(=O)NNS(=O)(=O)c3cccc(Cl)c3)cc2c1` 6.13

Same thing, different compound: `Cc1ccc(S(=O)(=O)NNC(=O)c2ccc3oc4ccccc4c3c2)cc1[N+](=O)[O-]` 51.6

Same thing, different compound: `CCc1ccc(S(=O)(=O)NNC(=O)c2cc3cccc(OC)c3o2)cc1` 57

Same thing, different compound: `O=C(NNS(=O)(=O)c1ccccc1Br)c1cc2cc(Cl)ccc2o1` 3.44

Same thing, different compound: `O=C(NNS(=O)(=O)c1cccc(Br)c1)c1ccc2ncccc2c1` 29

Same thing, different compound: `COc1cccc(S(=O)(=O)NNC(=O)c2ccc3ncccc3c2)c1` 46

Same thing, different compound: `COc1cccc2cc(C(=O)NNS(=O)(=O)c3cccc(F)c3)oc12` 12

Same thing, different compound: `O=C(NNS(=O)(=O)c1cccc(F)c1)c1ccc2ccccc2c1` 12.7

Same thing, different compound: `COc1cccc2cc(C(=O)NNS(=O)(=O)c3ccc(F)c(Cl)c3)oc12` 54

Same thing, different compound: `O=C(NNS(=O)(=O)c1ccccc1Cl)c1ccc2ccccc2c1` 25

Same thing, different compound: `COc1cccc2cc(C(=O)NNS(=O)(=O)c3ccc(F)cc3)oc12` 17.8

Same thing, different compound: `O=C(NNS(=O)(=O)c1ccccc1)c1cnc2ccccc2c1` 24.2

Same thing, different compound: `O=C(NNS(=O)(=O)c1ccccc1)c1ccc2ncccc2c1` 15.7

Same thing, different compound: `O=C(NNS(=O)(=O)c1cccc(F)c1)c1ccc2ncccc2c1` 40

Same thing, different compound: `O=C(NNS(=O)(=O)c1ccccc1C(F)(F)F)c1ccc2ccccc2c1` 4.1

Same thing, different compound: Cc1cccc(S(=O)(=O)NNC(=O)c2cnc3ccccc3c2)c1 [Example 129] 13

Same thing, different compound: O=C(NNS(=O)(=O)c1ccccc1OC(F)(F)F)c1cnc2ccccc2c1 [Example 137] 41

Same thing, different compound: `COc1ccc(Br)cc1S(=O)(=O)NNC(=O)c1cc2cccc(OC)c2o1` 41

Same thing, different compound: `O=C(NNS(=O)(=O)c1cccc(Br)c1)c1ccc2oc3ccccc3c2c1` 2.9

Same thing, different compound: `O=C(NNS(=O)(=O)c1cccc(Cl)c1)c1cnc2ccccc2c1` 61

Same thing, different compound: O=C(NNS(=O)(=O)c1ccccc1OC(F)(F)F)c1cnc2ccccc2c1 [Example 126] 36.2

Same thing, different compound: `O=C(NNS(=O)(=O)c1ccc(Br)cc1OC(F)(F)F)c1ccc2oc3ccccc3c2c1` 46.3

Same thing, different compound: `O=C(NNS(=O)(=O)c1ccccc1C(F)(F)F)c1cc2cc(Cl)cc(Cl)c2o1` 11.6

Same thing, different compound: `O=C(NNS(=O)(=O)c1ccccc1OC(F)(F)F)c1cc2cc(Cl)cc(Cl)c2o1` 11.2

Same thing, different compound: `O=C(NNS(=O)(=O)c1ccccc1)c1cc2cccc(Cl)c2o1` 11.5

Same thing, different compound: `O=C(NNS(=O)(=O)c1ccc(F)cc1)c1ccc2oc3ccccc3c2c1` 24

Same thing, different compound: `Nc1ccc2oc(C(=O)NNS(=O)(=O)c3ccccc3)cc2c1` 19.6

Same thing, different compound: `O=C(NNS(=O)(=O)c1ccc(F)c(F)c1)c1ccc2oc3ccccc3c2c1` 41.3

Same thing, different compound: `O=C(NNS(=O)(=O)c1ccccc1F)c1ccc2oc3ccccc3c2c1` 12.1

Same thing, different compound: `COc1cccc2cc(C(=O)NNS(=O)(=O)c3cccc(Cl)c3)oc12` 6

----------
Biological target: human Branched Chain Amino Acid Aminotransferase cytosolic form (hBCATc) (Homo sapiens, UniProt P54687)
Sequence (P54687 1-386): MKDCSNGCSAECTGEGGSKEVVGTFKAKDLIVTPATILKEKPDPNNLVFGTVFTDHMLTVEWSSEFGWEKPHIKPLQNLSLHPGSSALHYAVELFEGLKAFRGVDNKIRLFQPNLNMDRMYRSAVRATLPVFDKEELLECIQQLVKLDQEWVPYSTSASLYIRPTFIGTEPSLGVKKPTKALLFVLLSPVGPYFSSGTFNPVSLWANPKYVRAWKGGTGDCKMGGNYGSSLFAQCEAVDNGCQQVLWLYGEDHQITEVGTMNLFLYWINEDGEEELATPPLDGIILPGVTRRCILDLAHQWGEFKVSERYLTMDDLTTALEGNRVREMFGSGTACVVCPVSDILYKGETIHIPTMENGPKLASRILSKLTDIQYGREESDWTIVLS
Assay: In vitro coupled enzyme assay (glutamate dehydrogenase, NADH formation), human BCATc
Settings: recombinant human BCATc, 37° C., 25 mM phosphate buffer pH 7.8; several values in a cell = repeat determinations; read-out: RhBCATc
Assay metric: log10 IC50 (log10 of the value in µM)
Recorded IC50 (log10, µM)

So what's the measured log10 IC50 for this one? `Cc1ccccc1S(=O)(=O)NNC(=O)c1cc2cc(Cl)cc(Cl)c2o1` 0.82

Same thing, different compound: `O=C(NNS(=O)(=O)c1ccccc1)c1cc2cc(NS(=O)(=O)c3ccccc3)ccc2o1` 0.94

Same thing, different compound: `COc1c(C(=O)NNS(=O)(=O)c2cccc(C)c2)oc2c(OC)cccc12` 0.52

Same thing, different compound: `O=C(NNS(=O)(=O)c1ccccc1OC(F)(F)F)c1cc2cc(Cl)ccc2o1` 0.34

Same thing, different compound: `COc1cccc2cc(C(=O)NNS(=O)(=O)c3ccccc3C(F)(F)F)oc12` 0.58

Same thing, different compound: `O=C(NNS(=O)(=O)c1ccccc1)c1ccc2[nH]c3c(c2c1)CCCC3` 0.41

Same thing, different compound: `O=C(NNS(=O)(=O)c1ccccc1)c1cc2cc(Br)ccc2o1` 1.00

Same thing, different compound: `CCOc1c(C(=O)NNS(=O)(=O)c2ccccc2)oc2ccc(-c3ccccc3)cc12` 0.14

Same thing, different compound: `COc1ccc2oc(C(=O)NNS(=O)(=O)c3ccccc3)cc2c1` 1.11

Same thing, different compound: `O=C(NNS(=O)(=O)c1ccccc1[N+](=O)[O-])c1ccc2oc3ccccc3c2c1` 1.45

Same thing, different compound: `COc1c(C(=O)NNS(=O)(=O)c2ccccc2C(F)(F)F)oc2c(OC)cccc12` 0.68

Same thing, different compound: `O=C(NNS(=O)(=O)c1cccc(Br)c1)c1cc2cc(Cl)cc(Cl)c2o1` 1.81

Same thing, different compound: `Cc1cccc(S(=O)(=O)NNC(=O)c2cc3cc(C)ccc3o2)c1` 0.42

Same thing, different compound: `COc1cccc(S(=O)(=O)NNC(=O)c2ccc3ccccc3c2)c1` 0.91

Same thing, different compound: `Cc1ccc(S(=O)(=O)NNC(=O)c2cnc3ccccc3c2)cc1` 1.23

Same thing, different compound: `O=C(NNS(=O)(=O)c1cccc(Cl)c1)c1ccc2ncccc2c1` 1.34

----------
Field: melting point. Provide a value for each of the compounds that follow.

So what's the measured melting point for this one? COc1cccc(S(=O)(=O)NNC(=O)c2cnc3ccccc3c2)c1 [Example 143] 226.9 to 227.2 °C

Same thing, different compound: O=C(NNS(=O)(=O)c1ccccc1C(F)(F)F)c1ccc2ncccc2c1 [Example 134] 236.7 to 237.4 °C

Same thing, different compound: Nc1ccccc1S(=O)(=O)NNC(=O)c1ccc2oc3ccccc3c2c1 [Example 166] 217.9 to 218.4 °C

Same thing, different compound: COc1ccc(S(=O)(=O)Nc2ccc3oc(C(=O)NNS(=O)(=O)c4ccccc4)cc3c2)cc1 [Example 160] 213 to 214 °C

Same thing, different compound: Cc1cccc(S(=O)(=O)NNC(=O)c2cc3cc(C)ccc3o2)c1 (hydrate or solvate) [Example 80] 184.1 to 186 °C

Same thing, different compound: O=C(NNS(=O)(=O)c1ccccc1Cl)c1ccc2oc3ccccc3c2c1 [Example 17] 235 to 236 °C

Same thing, different compound: Cc1ccc(S(=O)(=O)Nc2ccc3oc(C(=O)NNS(=O)(=O)c4ccccc4)cc3c2)cc1 [Example 161] 181 to 183 °C

Same thing, different compound: O=C(NNS(=O)(=O)c1ccccc1Br)c1cc2cc(Cl)ccc2o1 [Example 44] 206.4 to 207.3 °C

Same thing, different compound: COc1c(C(=O)NNS(=O)(=O)c2ccccc2)oc2c(OC)cccc12 (hydrate or solvate) [Example 61] 177.9 to 179.6 °C

Same thing, different compound: Cc1ccc2oc(C(=O)NNS(=O)(=O)c3cccc(Cl)c3C)cc2c1 (hydrate or solvate) [Example 82] 182.4 to 184 °C

Same thing, different compound: Cc1ccc2oc(C(=O)NNS(=O)(=O)c3ccccc3C(F)(F)F)cc2c1 (hydrate or solvate) [Example 79] 194 to 195.4 °C

Same thing, different compound: COc1c(C(=O)NNS(=O)(=O)c2ccccc2)oc2ccc(-c3ccccc3)cc12 (hydrate or solvate) [Example 65] 180.7 to 181.3 °C

Same thing, different compound: Cc1ccc2oc(C(=O)NNS(=O)(=O)c3ccccc3)cc2c1 (hydrate or solvate) [Example 77] 183.3 to 183.6 °C

Same thing, different compound: O=C(NNS(=O)(=O)c1cc(Cl)cc(Cl)c1)c1cnc2ccccc2c1 (hydrate or solvate) [Example 139] 241.3 to 241.9 °C

Same thing, different compound: O=C(NNS(=O)(=O)c1ccc(F)cc1Cl)c1ccc2oc3ccccc3c2c1 [Example 25] 227.5 to 227.8 °C

Same thing, different compound: COc1cccc2cc(C(=O)NNS(=O)(=O)c3ccc(F)cc3)oc12 [Example 23] 182.7 to 183.3 °C

Measured values drawn from patent US20050004167A1 for this set.
